- TARGET DESC: CAIX-expressing human HT-29 colorectal cancer cells (Homo sapiens, UniProt Q16790)
- Construct: CAIX-expressing human HT-29 colorectal cancer cells; host or cells: HT-29 human colorectal cancer cells
- ASSAY TEXT: FACS binding assay (IC50 determination, competition with tracer 3BP-2776 or 3BP-4149)
- CONDITION NOTES: FACS competition on HT-29 cells, Tracer ID 3BP-2776 (10 nM, biotin-labeled), 4° C., 1 hour; read-out: pIC50 category (activity) (converted)
Starred links: 1 amine or outer side, 2 acyl side, 3 side chain; linkers in the order of their positions; H or OH if unused. Positions of bridges follow the written chain, without caps; N, C: chain ends. Non-standard residues stand in square brackets, D forms with d. Residues, ends and D or L forms follow the SMILES beside them. mXylylene = c1cc(C[*:1])cc(C[*:2])c1
ENDPOINT NAME: IC50

MOLECULE	MEASURED RESULT
CC(=O)N[C@H](C(=O)N[C@@H](Cc1ccc(O)cc1)C(=O)N[C@H]1CSCc2cccc(c2)CSC[C@@H](C(N)=O)NC(=O)[C@H](CCC(N)=O)NC(=O)[C@H](Cc2c[nH]c3ccccc23)NC(=O)[C@H]([C@@H](C)O)NC(=O)[C@H](CC(C)C)NC(=O)[C@H](Cc2c[nH]c3ccccc23)NC(=O)[C@H](CC(=O)O)NC(=O)CNC(=O)[C@@H](CCC(=O)O)NC1=O)C(C)C [3BP-3045] (Ac-VYC[dE]GDWLTWQC-NH2; linker 3-12 via mXylylene)	100 to 794 nM
CC(=O)N[C@@H](Cc1ccc(O)cc1)C(=O)N[C@H]1CSCc2cccc(c2)CSC[C@@H](C(N)=O)NC(=O)[C@H](CO)NC(=O)[C@H](Cc2c[nH]c3ccccc23)NC(=O)[C@H]([C@@H](C)O)NC(=O)[C@H](CC(C)C)NC(=O)[C@H](Cc2c[nH]c3ccccc23)NC(=O)[C@H](CC(=O)O)NC(=O)[C@H]2CCCN2C(=O)[C@H](CCC(=O)O)NC1=O [3BP-3729] (Ac-YCE[dP]DWLTWSC-NH2; linker 2-11 via mXylylene)	< 10 nM

Hey, just so you know, these numbers are from patent US20250339569A1.
